# credit: paper PMC5680101

Measured p (Hill coefficient) accompanies every entry in the list below.
# system.tested: OmpG (Escherichia coli, UniProt P76045, D245C)
# Sequence (P76045 22-301 D245C): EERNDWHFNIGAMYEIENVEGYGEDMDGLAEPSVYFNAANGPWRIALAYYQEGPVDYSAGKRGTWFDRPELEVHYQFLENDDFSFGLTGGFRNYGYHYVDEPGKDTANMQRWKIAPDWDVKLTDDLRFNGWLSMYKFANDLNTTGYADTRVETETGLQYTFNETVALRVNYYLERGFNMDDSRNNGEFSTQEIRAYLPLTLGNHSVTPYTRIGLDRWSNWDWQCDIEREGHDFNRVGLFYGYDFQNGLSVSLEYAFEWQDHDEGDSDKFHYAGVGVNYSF
# measurement.description: biochemical
# Format: binding, E. coli
# condition.label: four-parameter Hill fit; 200 mM NaCl, 50 mM HEPES, pH 7.4, 24°C
readout.kind: p (Hill coefficient)

1. CCCCCCCCO[C@@H]1O[C@H](CO)[C@@H](O)[C@H](O)[C@H]1O [OG, n-octyl-β-D-glucoside] = 4.9
2. CCCCCCCCCCO[C@@H]1O[C@H](CO)[C@@H](O[C@H]2O[C@H](CO)[C@@H](O)[C@H](O)[C@H]2O)[C@H](O)[C@H]1O [DM, n-decyl-β-D-maltoside] = 4.1
3. OC[C@H]1O[C@H](O[C@H]2[C@H](O)[C@@H](O)[C@H](OCCCCC3CCCCC3)O[C@@H]2CO)[C@H](O)[C@@H](O)[C@@H]1O [CYMAL-4, 4-cyclohexyl-1-Butyl-β-D-maltoside] = 6.7

====

# system.tested: OmpG (Escherichia coli, UniProt P76045, D245C)
# measurement.description: biochemical
# Format: binding, E. coli
# condition.label: rotational diffusion coefficient under solvation conditions
Recorded measurements of Dr slow, one per entry
readout.kind: Dr slow

1. CCCCCCCCO[C@@H]1O[C@H](CO)[C@@H](O)[C@H](O)[C@H]1O [OG, n-octyl-β-D-glucoside] = 1.2 ± 0.1 10^7 s^−1
2. OC[C@H]1O[C@H](O[C@H]2[C@H](O)[C@@H](O)[C@H](OCCCCC3CCCCC3)O[C@@H]2CO)[C@H](O)[C@@H](O)[C@@H]1O [CYMAL-4, 4-cyclohexyl-1-Butyl-β-D-maltoside] = 0.90 ± 0.01 10^7 s^−1
3. CCCCCCCCCCO[C@@H]1O[C@H](CO)[C@@H](O[C@H]2O[C@H](CO)[C@@H](O)[C@H](O)[C@H]2O)[C@H](O)[C@H]1O [DM, n-decyl-β-D-maltoside] = 0.89 ± 0.02 10^7 s^−1
4. C[C@H](CCC(=O)NCCC[N+](C)(C)CCCS(=O)(=O)[O-])[C@H]1CC[C@H]2[C@@H]3[C@H](O)C[C@@H]4C[C@H](O)CC[C@]4(C)[C@H]3C[C@H](O)[C@]12C = 1.0 ± 0.1 10^7 s^−1

====

# system.tested: OmpG (Escherichia coli, UniProt P76045, D245C)
# measurement.description: biochemical
# Assay type: binding, E. coli
readout.kind: Kd (µM)

1) CCCCCCCCCCO[C@@H]1O[C@H](CO)[C@@H](O[C@H]2O[C@H](CO)[C@@H](O)[C@H](O)[C@H]2O)[C@H](O)[C@H]1O [DM, n-decyl-β-D-maltoside] = 1800

====

# system.tested: FhuA ΔC/Δ5L (Escherichia coli, UniProt P06971, DEL561-566/INS560[…], form not given)
# Sequence (P06971 194-747, stated change not applied): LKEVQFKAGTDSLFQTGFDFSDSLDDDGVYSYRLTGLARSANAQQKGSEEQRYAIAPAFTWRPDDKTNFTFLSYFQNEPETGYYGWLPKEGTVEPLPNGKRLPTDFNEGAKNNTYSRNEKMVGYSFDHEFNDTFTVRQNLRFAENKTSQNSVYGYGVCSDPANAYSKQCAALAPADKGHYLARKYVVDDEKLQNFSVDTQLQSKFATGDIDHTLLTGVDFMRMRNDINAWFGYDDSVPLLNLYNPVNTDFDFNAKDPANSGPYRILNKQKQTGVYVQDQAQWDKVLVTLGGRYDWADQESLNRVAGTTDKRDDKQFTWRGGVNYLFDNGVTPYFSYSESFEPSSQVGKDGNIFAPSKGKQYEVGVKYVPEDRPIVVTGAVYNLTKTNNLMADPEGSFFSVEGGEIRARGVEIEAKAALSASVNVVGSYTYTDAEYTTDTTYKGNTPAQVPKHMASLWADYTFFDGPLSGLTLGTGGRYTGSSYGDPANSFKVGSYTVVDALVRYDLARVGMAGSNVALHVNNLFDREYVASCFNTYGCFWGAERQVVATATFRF
# Type: binding, E. coli
# condition.label: ΔG = RT ln Kd
readout.kind: ΔG (kcal/mol)

1. OC[C@H]1O[C@H](O[C@H]2[C@H](O)[C@@H](O)[C@H](OCCCCC3CCCCC3)O[C@@H]2CO)[C@H](O)[C@@H](O)[C@@H]1O [CYMAL-4, 4-cyclohexyl-1-Butyl-β-D-maltoside] = -3.1
2. CCCCCCCCO[C@@H]1O[C@H](CO)[C@@H](O)[C@H](O)[C@H]1O [OG, n-octyl-β-D-glucoside] = -2.5
3. CCCCCCCCCCO[C@@H]1O[C@H](CO)[C@@H](O[C@H]2O[C@H](CO)[C@@H](O)[C@H](O)[C@H]2O)[C@H](O)[C@H]1O [DM, n-decyl-β-D-maltoside] = -3.8
4. C[C@H](CCC(=O)NCCC[N+](C)(C)CCCS(=O)(=O)[O-])[C@H]1CC[C@H]2[C@@H]3[C@H](O)C[C@@H]4C[C@H](O)CC[C@]4(C)[C@H]3C[C@H](O)[C@]12C = -3.4

====

# system.tested: acidic β-barrel proteins
# measurement.description: steady-state FP anisotropy, detergent desolvation, acidic β barrels
# condition.label: physiological pH
readout.kind: Kd

1. CCCCCCCCCCO[C@@H]1O[C@H](CO)[C@@H](O[C@H]2O[C@H](CO)[C@@H](O)[C@H](O)[C@H]2O)[C@H](O)[C@H]1O [DM, n-decyl-β-D-maltoside] = ~1800 µM

====

# system.tested: FhuA ΔC/Δ7L_30N (Escherichia coli)
# Sequence (P06971 194-747, stated change not applied): as the sequence (P06971 194-747, stated change not applied) above
# Type: binding, E. coli
# condition.label: maximum anisotropy at detergent concentrations above the CMC; 200 mM NaCl, 50 mM HEPES, pH 7.4
readout.kind: rmax

1) OC[C@H]1O[C@H](O[C@H]2[C@H](O)[C@@H](O)[C@H](OCCCCC3CCCCC3)O[C@@H]2CO)[C@H](O)[C@@H](O)[C@@H]1O [CYMAL-4, 4-cyclohexyl-1-Butyl-β-D-maltoside] = 0.345
2) CCCCCCCCCCO[C@@H]1O[C@H](CO)[C@@H](O[C@H]2O[C@H](CO)[C@@H](O)[C@H](O)[C@H]2O)[C@H](O)[C@H]1O [DM, n-decyl-β-D-maltoside] = 0.312

====

# system.tested: FhuA ΔC/Δ5L (Escherichia coli, UniProt P06971, DEL561-566/INS560[…], form not given)
# Assay type: binding, E. coli
# condition.label: calculated at the midpoint of the dissociation phase
q (slope factor or transition steepness) overview
readout.kind: q (slope factor or transition steepness) (mM⁻¹)

1) CCCCCCCCO[C@@H]1O[C@H](CO)[C@@H](O)[C@H](O)[C@H]1O [OG, n-octyl-β-D-glucoside] = 0.013
2) C[C@H](CCC(=O)NCCC[N+](C)(C)CCCS(=O)(=O)[O-])[C@H]1CC[C@H]2[C@@H]3[C@H](O)C[C@@H]4C[C@H](O)CC[C@]4(C)[C@H]3C[C@H](O)[C@]12C = 0.015
3) OC[C@H]1O[C@H](O[C@H]2[C@H](O)[C@@H](O)[C@H](OCCCCC3CCCCC3)O[C@@H]2CO)[C@H](O)[C@@H](O)[C@@H]1O [CYMAL-4, 4-cyclohexyl-1-Butyl-β-D-maltoside] = 0.38
4) CCCCCCCCCCO[C@@H]1O[C@H](CO)[C@@H](O[C@H]2O[C@H](CO)[C@@H](O)[C@H](O)[C@H]2O)[C@H](O)[C@H]1O [DM, n-decyl-β-D-maltoside] = 0.072

====

# system.tested: OmpG (Escherichia coli, UniProt P76045, D245C)
# measurement.description: biochemical
# Type: binding, E. coli
# condition.label: maximum hydrodynamic radius of the proteomicelle
# Rh max per record follows
readout.kind: Rh max (nm)

1) CCCCCCCCCCO[C@@H]1O[C@H](CO)[C@@H](O[C@H]2O[C@H](CO)[C@@H](O)[C@H](O)[C@H]2O)[C@H](O)[C@H]1O [DM, n-decyl-β-D-maltoside] = 2.6
2) CCCCCCCCO[C@@H]1O[C@H](CO)[C@@H](O)[C@H](O)[C@H]1O [OG, n-octyl-β-D-glucoside] = 2.4
3) OC[C@H]1O[C@H](O[C@H]2[C@H](O)[C@@H](O)[C@H](OCCCCC3CCCCC3)O[C@@H]2CO)[C@H](O)[C@@H](O)[C@@H]1O [CYMAL-4, 4-cyclohexyl-1-Butyl-β-D-maltoside] = 2.6
4) C[C@H](CCC(=O)NCCC[N+](C)(C)CCCS(=O)(=O)[O-])[C@H]1CC[C@H]2[C@@H]3[C@H](O)C[C@@H]4C[C@H](O)CC[C@]4(C)[C@H]3C[C@H](O)[C@]12C = 2.5

====

# system.tested: FhuA ΔC/Δ5L (Escherichia coli, UniProt P06971, DEL561-566/INS560[…], form not given)
# Type: binding, E. coli
# condition.label: maximum hydrodynamic radius of the proteomicelle
# Rh max per entry
readout.kind: Rh max (nm)

1. CCCCCCCCO[C@@H]1O[C@H](CO)[C@@H](O)[C@H](O)[C@H]1O [OG, n-octyl-β-D-glucoside] = 2.2
2. CCCCCCCCCCO[C@@H]1O[C@H](CO)[C@@H](O[C@H]2O[C@H](CO)[C@@H](O)[C@H](O)[C@H]2O)[C@H](O)[C@H]1O [DM, n-decyl-β-D-maltoside] = 3.3
3. C[C@H](CCC(=O)NCCC[N+](C)(C)CCCS(=O)(=O)[O-])[C@H]1CC[C@H]2[C@@H]3[C@H](O)C[C@@H]4C[C@H](O)CC[C@]4(C)[C@H]3C[C@H](O)[C@]12C = 2.2
4. OC[C@H]1O[C@H](O[C@H]2[C@H](O)[C@@H](O)[C@H](OCCCCC3CCCCC3)O[C@@H]2CO)[C@H](O)[C@@H](O)[C@@H]1O [CYMAL-4, 4-cyclohexyl-1-Butyl-β-D-maltoside] = 3.6

====

# system.tested: FhuA ΔC/Δ5L (Escherichia coli, UniProt P06971, DEL561-566/INS560[…], form not given)
# Type: binding, E. coli
# condition.label: decrease in hydrodynamic radius as a result of detergent desolvation
readout.kind: ΔRh (nm)

1. OC[C@H]1O[C@H](O[C@H]2[C@H](O)[C@@H](O)[C@H](OCCCCC3CCCCC3)O[C@@H]2CO)[C@H](O)[C@@H](O)[C@@H]1O [CYMAL-4, 4-cyclohexyl-1-Butyl-β-D-maltoside] = 1.7
2. C[C@H](CCC(=O)NCCC[N+](C)(C)CCCS(=O)(=O)[O-])[C@H]1CC[C@H]2[C@@H]3[C@H](O)C[C@@H]4C[C@H](O)CC[C@]4(C)[C@H]3C[C@H](O)[C@]12C = 0.77
3. CCCCCCCCO[C@@H]1O[C@H](CO)[C@@H](O)[C@H](O)[C@H]1O [OG, n-octyl-β-D-glucoside] = 0.80
4. CCCCCCCCCCO[C@@H]1O[C@H](CO)[C@@H](O[C@H]2O[C@H](CO)[C@@H](O)[C@H](O)[C@H]2O)[C@H](O)[C@H]1O [DM, n-decyl-β-D-maltoside] = 1.6
